Test system: Trypanosoma brucei
protocol-notes: Trypanosoma brucei 72 hour study
Type: functional, organism-based
Set-up: scale not given: in the data most compounds retested in dose-response had high values
experimental-context: 30.3 µM; […]
Screen size: about 66,000 compounds; about 960 (1.5%) showed an effect of 50% or more. Many of the other results were omitted from the sample, so strong results are more common in it than they were.
Item-by-item account of Percent Effect
API: value field is a number in %; no unit string.

Solved entries (count: 6):
O=C(CCN1C[C@@H]2CC[C@H]1C2)N1CCN(c2cccc(Cl)c2)C(=O)C1    -18.65
CNCC[C@H]1CC(C)(C)Oc2ccc(OC)cc21    -16.4
COc1cc(N2CCC3(CCN(Cc4cccnc4)C3=O)C2)ncn1 (stereo unspecified)    -84.3
CC(C)C1CN(c2cccc(C#N)n2)CCCN1CC1CC1 (stereo unspecified)    -2.966
Cc1cc(C(F)(F)F)nn1CC(C)C(=O)Nc1cccnc1 (stereo unspecified)    -4.531
COc1ccc2c(c1)[C@@H](CCNC(C)=O)CC(C)(C)O2    -14.03

Q: Please give the measured Percent Effect for this compound: CNCC[C@H]1CC(C)(C)Oc2ccc(OCC3CC3)cc21
A: 86.36

Q: And for CC(C)C1CN(c2cccc(C#N)n2)CCCN1Cc1ccc(F)cc1 (stereo unspecified) ?
A: 99.78

Q: Now try CCCS(=O)(=O)N1C[C@@H](c2ccccc2)[C@@]2(CCNC2=O)C1 .
A: -54.35

Q: Lookup CC(C)Oc1ncccc1CNC(=O)N1CCC1
A: -18.33

Q: Follow-up entry: COCCN1CCC2(CC1)CC(c1cccnc1)CO2.O=C(O)C(F)(F)F (stereo unspecified)
A: -48.93

----------
System: Trypanosoma brucei
protocol-notes: Trypanosoma brucei 72 hour study
Format: functional, organism-based
Design: scale not given: in the data most compounds retested in dose-response had high values
experimental-context: 30 µM; 30.03 µM
Screen size: about 66,000 compounds; about 960 (1.5%) showed an effect of 50% or more. This is one part of a sample in which strong results are shown more often than they occur.
observed-property: Percent Effect (%)
Write the number in % without appending the unit.

Some solved entries appear below for comparison.
COc1cc(-c2nc3c([nH]2)CCCNC3=O)ccc1O    4.773
CCCc1nc(N2CCCN(c3ccncc3)CC2)c2cnn(C)c2n1    59.27
Oc1ccc(Br)c(CNc2cccc(-c3nnc[nH]3)c2)c1    56.16
COCCN1CCC(CNC(=O)c2cc(C)cc(C)c2)C1 (stereo unspecified)    28.41

Q: Requested read-out: Percent Effect. Entry: O=C(O)C(F)(F)F.O=C(c1ccnnc1)N1CC[C@]2(C[C@H](Oc3ncccc3F)CO2)C1
A: -5.807

Q: Do the same for CN1C[C@@H](N)C[C@H]1C(=O)N1CCC(CCCc2ccccc2)CC1 please
A: -31.74

----------
Test system: Trypanosoma brucei
protocol-notes: Trypanosoma brucei 72 hour study
Format: functional, organism-based
Parameters: scale not given: in the data most compounds retested in dose-response had high values
experimental-context: 30.3 µM; […]
Out of some 66,000 compounds screened, about 960 (1.5%) showed an effect of 50% or more. Shown is part of a subset that was picked to be rich in strong results.
Reported Percent Effect values for a set of compounds
Write the answer as a number in %, unit excluded.

Below are worked cases with known answers.
COc1ccc(-c2cc(CN)ccc2F)c(OC)c1OC    -22.81
CN1CCCC1c1cccc(Cc2ccc(F)cc2)n1 (stereo unspecified)    99.38
CN1CCC(c2cccc(Cc3ccc(C(F)(F)F)cc3)n2)CC1    100.8
Cc1cncc(CN2C[C@@H](O)[C@H](Oc3ccccc3)C2)c1    6.651
CN(C)C(=O)CCc1cncc(C2CCCN2Cc2ccccn2)n1 (stereo unspecified)    -6.842

Now consider a different compound.
Q: Item CN(C)C(=O)COC[C@]12COC[C@H]1CN(CCc1ccccc1)C2.O=C(O)C(F)(F)F has what recorded Percent Effect?
A: -48.5
